# Measurement Protocol: Quantitative highthroughput screen to assess conditional lethalithy of NOMO1 cells grown in RPMI1640 with dialyzed fetal bovine serum (RPMI+ds) (AID 1963877); also: nearly all actives have a fitted effect of over 30% in size
# Measurement Parameters: NOMO1 in RPMI+dialyzed FBS viability, ATP luminescence, 48 h; series mostly up to 45.8 µM
Results filed as inconclusive are left out. The source made the active and inactive calls. Calls follow the shape of the dose curve; as a rule, active = well fitted cell-killing curve with a large enough effect; inconclusive = small, poorly fitted or top-dose-only effect; inactive = flat fitted curve, though single readings scatter.
Answer with one of the outcomes TRUE for active, FALSE for inactive

Write down the call the test reported for this compound. Item: `C[C@@H]1CC=CC=CC=CC=C[C@@H](O[C@@H]2O[C@H](C)[C@@H](O)[C@H](N)[C@H]2O)C[C@@H]2O[C@](O)(C[C@@H](O)C[C@@H]3O[C@@H]3C=CC(=O)O1)C[C@H](O)[C@@H]2C(=O)O`
FALSE

Write down the call the test reported for this compound. Item: `CN(C)c1nc(Cc2ccc(NC(=O)c3ccc(C(F)(F)F)cc3)cc2)nc(N(C)C)c1CC(=O)O`
FALSE

Write down the call the test reported for this compound. Item: `CCCS(=O)(=O)Nc1ccc(F)c(C(=O)c2c[nH]c3ncc(-c4ccc(Cl)cc4)cc23)c1F`
FALSE

Write down the call the test reported for this compound. Item: `CCOC(=O)C(C)(C)Oc1ccc(Cl)cc1`
FALSE

Write down the call the test reported for this compound. Item: `CCCc1nc(C)c2c(=O)[nH]c(-c3cc(S(=O)(=O)N4CCN(CC)CC4)ccc3OCC)nn12`
TRUE

Write down the call the test reported for this compound. Item: `COc1nc(N)nc2c1ncn2[C@@H]1O[C@H](CO)[C@@H](O)[C@@H]1O`
FALSE

Write down the call the test reported for this compound. Item: C[C@]12CC[C@H](O)CC1=CCC1C2CC[C@]2(C)C(n3cnc4ccccc43)=CCC12 (stereo partly drawn)
FALSE

Write down the call the test reported for this compound. Item: `COc1ccc2cc1Oc1ccc(cc1)C[C@H]1c3cc(c(OC)cc3CCN1C)Oc1c(OC)c(OC)cc3c1[C@H](C2)N(C)CC3`
FALSE

====

# Measurement Protocol: Quantitative highthroughput screen to assess conditional lethalithy of NOMO1 cells grown in Human Plasma-Like Medium with dialyzed fetal bovine serum (HPLM+ds) (AID 1963878); also: nearly all actives have a fitted effect of over 35% in size
# Measurement Parameters: NOMO1 AML cells in HPLM+ds, CellTiter-Glo viability, 48 h; series mostly up to 45.8 µM
Results filed as inconclusive are left out. Active and inactive are the calls of the source. The call rests on the fitted dose curve; in most records, active means well fitted cell-killing curve with a large enough effect; inconclusive means small, poorly fitted or top-dose-only effect, or effect the other way; inactive means no such curve, though single readings can be large or run the other way.
Answer with one of the outcomes t = active, f = inactive

Write down the call the test reported for this compound. Item: `C#Cc1cccc(Nc2ncnc3cc(OC)c(OCCCCCCC(=O)NO)cc23)c1`
t

Write down the call the test reported for this compound. Item: CC(O)(C#Cc1ccc2c(c1)N(c1nc(N)ncc1Cl)CC2)c1nccs1 (configuration not stated)
f

Write down the call the test reported for this compound. Item: `COc1cc(C=CC(=O)O)ccc1O`
f

Write down the call the test reported for this compound. Item: `CN1CCC(=C2c3ccccc3CC(=O)c3sccc32)CC1`
f

Write down the call the test reported for this compound. Item: `COc1cc2nc(-c3ccc(N4CCN(C)CC4)cc3)nc(NCCN3CCOCC3)c2cc1OC`
t

Write down the call the test reported for this compound. Item: `COC(=O)N1CC2(CC2)C[C@H](C(=O)NO)[C@H]1C(=O)N1CCN(c2ccccc2)CC1`
t

Write down the call the test reported for this compound. Item: `OC[C@H](Cc1ccccc1)Nc1nc(Oc2ccc3c(c2)CCC3)nc2c1ncn2Cc1ccc(-c2ccccc2)cc1`
f

Write down the call the test reported for this compound. Item: CN1C2CCC1CC(OC(=O)C(CO)c1ccccc1)C2 (configuration not stated)
f

Write down the call the test reported for this compound. Item: `CC(C)c1c(C(=O)Nc2ccccc2)c(-c2ccccc2)c(-c2ccc(F)cc2)n1CC[C@H](O)C[C@@H](O)CC(=O)O`
t

Write down the call the test reported for this compound. Item: `C[N+]1(C)[C@@H]2C[C@@H](OC(=O)C(O)(c3cccs3)c3cccs3)C[C@H]1[C@@H]1O[C@@H]12`
f

Write down the call the test reported for this compound. Item: O=c1c(-c2ccc(O)cc2)coc2cc(OC3O[C@H](CO)[C@H](O)[C@H](O)[C@H]3O)cc(O)c12 (some centres not stated)
f

Write down the call the test reported for this compound. Item: C=C1C(=O)[C@@]23C(CC[C@@H]1[C@H]2O)[C@@]12CO[C@]3(O)[C@@H](O)[C@@H]1C(C)(C)CC[C@@H]2O (some centres not stated)
t

Write down the call the test reported for this compound. Item: `COc1cc(Cl)cn2c(-c3cccc(NC4CNC4)n3)cnc12`
f

Write down the call the test reported for this compound. Item: `Cc1c(NC(=O)c2ccc(C(C)(C)C)cc2)cccc1-c1cn(C)c(=O)c(Nc2ccc(C(=O)N3CCOCC3)cc2)n1`
f

Write down the call the test reported for this compound. Item: `C[C@@H]1[C@H](O)[C@@H](C)C=CC=CC=CC=CC=CC=CC=C[C@H](O[C@@H]2O[C@H](C)[C@H](O)[C@H](N)[C@@H]2O)C[C@@H]2O[C@](O)(C[C@@H](O)C[C@@H](O)[C@H](O)CC[C@@H](O)C[C@@H](O)CC(=O)O[C@H]1C)C[C@H](O)[C@@H]2C(=O)O`
f

Write down the call the test reported for this compound. Item: `O=C(c1ccc(Nc2nccc(-c3cc4ccccc4s3)n2)cc1)N1CCC(N2CCCC2)CC1`
t

Write down the call the test reported for this compound. Item: `C[C@H]1[C@H](NC(=O)C(=NOC(C)(C)C(=O)O)c2csc(N)n2)C(=O)N1S(=O)(=O)O`
f

Write down the call the test reported for this compound. Item: OC(CN1CCC(Cc2ccc(F)cc2)CC1)c1ccc(Cl)cc1 (configuration not stated)
f

Write down the call the test reported for this compound. Item: `N#Cc1c(N(CC(=O)O)CC(=O)O)sc(C(=O)O)c1CC(=O)O`
f

Write down the call the test reported for this compound. Item: Cc1nn(C)c2c1C(c1ccc(C(F)(F)F)cc1)C(C#N)=C(N)O2 (configuration not stated)
f

Write down the call the test reported for this compound. Item: `NC(=O)[C@@H](CCC(F)(F)F)N(Cc1ccc(-c2ncon2)cc1F)S(=O)(=O)c1ccc(Cl)cc1`
t

Write down the call the test reported for this compound. Item: `O=NN(CCCl)C(=O)NCCCl`
f

Write down the call the test reported for this compound. Item: NC(=O)C1CCCc2c1[nH]c1ccc(Cl)cc21 (configuration not stated)
t

Write down the call the test reported for this compound. Item: `Cc1cc(CS(=O)(=O)c2ccccc2)cc(OCc2ccc(CN3CCC[C@H]3CO)cc2)c1`
t

Write down the call the test reported for this compound. Item: `O=C(O)c1nc(=O)[nH]c(=O)[nH]1`
f

Write down the call the test reported for this compound. Item: `O=c1c(O)c(-c2ccc(O)c(O)c2)oc2cc(O)cc(O)c12`
f

Write down the call the test reported for this compound. Item: `CCC[C@H]1C[C@H](C(=O)N[C@@H]([C@@H]2O[C@@H](SC)[C@@H](O)[C@@H](O)[C@@H]2O)[C@H](C)Cl)N(C)C1`
f

Write down the call the test reported for this compound. Item: `c1ccc2c(Cc3c[nH]c4ccccc34)c[nH]c2c1`
t

Write down the call the test reported for this compound. Item: `Nc1ccc(S(=O)(=O)Nc2ccnn2-c2ccccc2)cc1`
f

Write down the call the test reported for this compound. Item: `CCCCCN(C)CCC(O)(P(=O)(O)O)P(=O)(O)O`
f

Write down the call the test reported for this compound. Item: `C[N+](C)(C)CC(=O)O`
f

Write down the call the test reported for this compound. Item: CC1(C)CC(=O)c2c(C(F)(F)F)nn(-c3ccc(C(N)=O)c(NC4CCC(O)CC4)c3)c2C1 (configuration not stated)
t

Write down the call the test reported for this compound. Item: `Cc1cnc(Nc2ccc(N3CCN(C)CC3)cc2)nc1Nc1cccc(S(=O)(=O)NC(C)(C)C)c1`
t

Write down the call the test reported for this compound. Item: COC(=O)C1=C(C)NC(C)=C(C(=O)OCCN2CCN(C(c3ccccc3)c3ccccc3)CC2)C1c1cccc([N+](=O)[O-])c1 (configuration not stated)
f

Write down the call the test reported for this compound. Item: `O=C(CN1C(=O)C2(CCCC2)NC[C@H]1c1cc(F)cc(F)c1)Nc1ccc2c(c1)C[C@@]1(C2)C(=O)Nc2ncccc21`
t

Write down the call the test reported for this compound. Item: `CN1C(=O)c2sccc2N(C)c2nc(Nc3ccc(S(N)(=O)=O)cc3)ncc21`
t

Write down the call the test reported for this compound. Item: `CCNC(=O)c1cc2c(-c3cc(OCCN4CCCC4)c(Cl)cc3Cl)nc(N)nc2s1`
t

Hello, the source for this data is PubChem BioAssay (NCATS), in case you need it.
